assay: MTT and crystal violet cell viability assays; type: cell-based; details: human, PC-3 cells, MTT and crystal violet assays, up to 72 h observation, read-out: IC50 (cytotoxicity)
# IC50 at 48 h per record follows

| structure notation | IC50 at 48 h |
| --- | --- |
| CC1=CC(C)=[N+]2C1=C(c1ccc(C(=O)NCCN3C(=O)c4ccc5c6c(ccc(c46)C3=O)C(=O)N([C@@H](CCC(N)=O)C(=O)N[C@@H](Cc3c[nH]c4ccccc34)C(=O)N[C@@H](C)C(=O)N[C@H](C(=O)NCC(=O)N[C@@H](Cc3c[nH]cn3)C(=O)N[C@@H](CC(C)C)C(N)=O)C(C)C)C5=O)cc1)c1c(C)cc(C)n1[B-]2(F)F | > 100 µM |
| CC(C)C[C@H](NC(=O)[C@H](Cc1c[nH]cn1)NC(=O)CNC(=O)[C@@H](NC(=O)[C@H](C)NC(=O)[C@H](Cc1c[nH]c2ccccc12)NC(=O)[C@H](CCC(N)=O)NC(=O)[C@H](Cc1ccc(I)cc1)N1C(=O)c2ccc3c4c(ccc(c24)C1=O)C(=O)N([C@@H](Cc1ccc(I)cc1)C(=O)N[C@@H](CCC(N)=O)C(=O)N[C@@H](Cc1c[nH]c2ccccc12)C(=O)N[C@@H](C)C(=O)N[C@H](C(=O)NCC(=O)N[C@@H](Cc1c[nH]cn1)C(=O)N[C@@H](CC(C)C)C(N)=O)C(C)C)C3=O)C(C)C)C(N)=O | > 100 µM |
| CC(C)C[C@H](NC(=O)[C@H](Cc1c[nH]cn1)NC(=O)CNC(=O)[C@@H](NC(=O)[C@H](C)NC(=O)[C@H](Cc1c[nH]c2ccccc12)NC(=O)[C@H](CCC(N)=O)NC(=O)[C@H](Cc1ccc(I)cc1)N1C(=O)c2ccc3c4c(ccc(c24)C1=O)C(=O)N([C@@H](Cc1ccc(I)cc1)C(=O)ON1C(=O)CCC1=O)C3=O)C(C)C)C(N)=O | > 100 µM |
